Origin of measurements: the supplement of paper PMC3545927

# target or test system: furin, P09958;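 also: purified furin at 1:10 enzyme:substrate in 50 mM HEPES pH 7.5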
# Sequence (P09958 whole entry): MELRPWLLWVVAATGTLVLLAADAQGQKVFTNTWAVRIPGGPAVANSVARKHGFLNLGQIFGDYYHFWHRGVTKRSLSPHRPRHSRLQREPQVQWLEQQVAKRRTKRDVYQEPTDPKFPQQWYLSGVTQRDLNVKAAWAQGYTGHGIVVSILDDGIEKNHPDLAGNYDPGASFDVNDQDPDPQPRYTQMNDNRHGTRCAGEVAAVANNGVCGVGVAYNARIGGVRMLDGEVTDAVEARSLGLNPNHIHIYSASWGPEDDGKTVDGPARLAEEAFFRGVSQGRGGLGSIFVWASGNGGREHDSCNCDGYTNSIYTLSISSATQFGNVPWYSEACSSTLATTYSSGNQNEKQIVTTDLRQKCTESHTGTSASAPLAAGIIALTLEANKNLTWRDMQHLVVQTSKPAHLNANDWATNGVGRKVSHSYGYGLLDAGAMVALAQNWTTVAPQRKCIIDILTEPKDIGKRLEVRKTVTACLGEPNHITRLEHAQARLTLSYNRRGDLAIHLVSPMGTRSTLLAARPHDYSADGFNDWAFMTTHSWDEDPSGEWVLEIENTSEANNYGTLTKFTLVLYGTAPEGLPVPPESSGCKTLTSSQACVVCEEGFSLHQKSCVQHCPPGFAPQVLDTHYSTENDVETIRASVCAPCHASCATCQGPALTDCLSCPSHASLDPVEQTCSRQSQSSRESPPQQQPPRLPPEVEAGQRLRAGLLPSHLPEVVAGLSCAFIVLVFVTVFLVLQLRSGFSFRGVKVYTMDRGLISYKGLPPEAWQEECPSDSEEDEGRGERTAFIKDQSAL
# procedure text: furin cleavage Z-score vs untreated control; higher = more cleavage, active = 3.5 or more, inactive = 1 or less, 8 variable residues between constant flanks
# condition parameters: 30 min
The other results are listed elsewhere or left out. No count for the full screen is at hand.
Allowed answers: active, inactive

# sequence entry, group label
data = [
    ("CARHKRWHFIAGNASASA [FS-1824]", "active"),
    ("CARHYRNVFHAGNASASA [FS-2557]", "active"),
    ("CAENLVILNAAGNASASA [HC535]", "inactive"),
    ("CARHKRIPPEAGNASASA [FS-3254]", "inactive"),
    ("CALLQRVRRAAGNASASA [FS-1360]", "active"),
    ("CALIPRVRRAAGNASASA [FS-608]", "active"),
]

input: Record request — test call for CAVKSRLKRLAGNASASA [FS-890]
output: active
